System: 313798-341-R-J2-PDC spheroids, viability
PROTOCOL DETAILS: Anticancer human tumor 313798-341-R-J2-PDC patient-derived cervical squamous cell carcinoma cell line growth inhibition [PI3K]; active means viability on the fitted dose curve at most 10% of control; inactive means the rest
RUN PARAMETERS: second compound 0.316 µM; first compound 1 µM; spheroids with HUVEC and MSC
Outcome codes: active, inactive

MOLECULE	GROUP
CC(C)NCC(C(=O)N1CCN(c2ncnc3c2C(C)CC3O)CC1)c1ccc(Cl)cc1 (stereo unspecified) + Cc1nc(NC(=O)N2CCCC2C(N)=O)sc1-c1ccnc(C(C)(C)C(F)(F)F)c1	inactive
CC1(C)CCC(Nc2ncc(C(F)(F)F)c(-c3c[nH]c4c(P(C)(C)=O)c(C#N)ccc34)n2)CN1 (stereo unspecified) + CC(Nc1ncnc2nc[nH]c12)c1cc2cccc(Cl)c2c(=O)n1-c1ccccc1	inactive
CNC(=O)c1ccc(N2C(=S)N(c3ccc(C#N)c(C(F)(F)F)c3)C(=O)C2(C)C)cc1F + COc1c(OCCCN2CCOCC2)ccc2c3n(c(=NC(=O)c4cnc(N)nc4)nc12)CCN3	inactive
C=CC(=O)N1CCN(c2nc(=O)n(-c3c(C)ccnc3C(C)C)c3nc(-c4c(O)cccc4F)c(F)cc23)C(C)C1 (stereo unspecified) + Cc1nc(NC(=O)N2CCCC2C(N)=O)sc1-c1ccnc(C(C)(C)C(F)(F)F)c1	inactive
CC1(C)CCC(Nc2ncc(C(F)(F)F)c(-c3c[nH]c4c(P(C)(C)=O)c(C#N)ccc34)n2)CN1 (stereo unspecified) + COc1c(OCCCN2CCOCC2)ccc2c3n(c(=NC(=O)c4cnc(N)nc4)nc12)CCN3	active
C[C@@H](NC(=O)c1ncnc(N)c1Cl)c1ncc(C(=O)Nc2cc(C(F)(F)F)c(Cl)cn2)s1 + Cc1nc(NC(=O)N2CCCC2C(N)=O)sc1-c1ccnc(C(C)(C)C(F)(F)F)c1	inactive
CC(C)NCC(C(=O)N1CCN(c2ncnc3c2C(C)CC3O)CC1)c1ccc(Cl)cc1 (stereo unspecified) + CC(Nc1ccc2c(c1)OCCn1cc(N3C(=O)OCC3C(F)F)nc1-2)C(N)=O	inactive
CC(C)NCC(C(=O)N1CCN(c2ncnc3c2C(C)CC3O)CC1)c1ccc(Cl)cc1 (stereo unspecified) + COc1c(OCCCN2CCOCC2)ccc2c3n(c(=NC(=O)c4cnc(N)nc4)nc12)CCN3	inactive
CCCS(=O)(=O)Nc1ccc(F)c(C(=O)c2c[nH]c3ncc(-c4ccc(Cl)cc4)cc23)c1F + COc1c(OCCCN2CCOCC2)ccc2c3n(c(=NC(=O)c4cnc(N)nc4)nc12)CCN3	inactive
CC(Cn1ccc(-c2ccc(C#N)c(Cl)c2)n1)NC(=O)c1cc(C(C)O)[nH]n1 (stereo unspecified) + CC(Nc1ncnc2nc[nH]c12)c1cc2cccc(Cl)c2c(=O)n1-c1ccccc1	inactive
C#Cc1c(F)ccc2cc(O)cc(-c3ncc4c(N5CC6CCC(C5)N6)nc(OCC56CCCN5CC(F)C6)nc4c3F)c12 (stereo unspecified) + CC(Nc1ccc2c(c1)OCCn1cc(N3C(=O)OCC3C(F)F)nc1-2)C(N)=O	inactive
Cn1nccc1Nc1nccc(-c2ccn(C(CO)c3ccc(Cl)c(F)c3)c(=O)c2)n1 (stereo unspecified) + CC(Nc1ccc2c(c1)OCCn1cc(N3C(=O)OCC3C(F)F)nc1-2)C(N)=O	inactive
Cn1ncc(Cl)c1-c1cc(C(=O)NC(CN)Cc2cccc(F)c2)sc1Cl (stereo unspecified) + CC(Nc1ncnc2nc[nH]c12)c1cc2cccc(Cl)c2c(=O)n1-c1ccccc1	inactive
CNC(=O)c1ccc(N2C(=S)N(c3ccc(C#N)c(C(F)(F)F)c3)C(=O)C2(C)C)cc1F + CC(Nc1ncnc2nc[nH]c12)c1cc2cccc(Cl)c2c(=O)n1-c1ccccc1	inactive
C#Cc1c(F)ccc2cc(O)cc(-c3ncc4c(N5CC6CCC(C5)N6)nc(OCC56CCCN5CC(F)C6)nc4c3F)c12 (stereo unspecified) + CC(Nc1ncnc2nc[nH]c12)c1cc2cccc(Cl)c2c(=O)n1-c1ccccc1	inactive
CCN1CCN(Cc2ccc(Nc3ncc(F)c(-c4cc(F)c5nc(C)n(C(C)C)c5c4)n3)nc2)CC1 + CC(Nc1ccc2c(c1)OCCn1cc(N3C(=O)OCC3C(F)F)nc1-2)C(N)=O	inactive
CCN1CCN(Cc2ccc(Nc3ncc(F)c(-c4cc(F)c5nc(C)n(C(C)C)c5c4)n3)nc2)CC1 + CC(Nc1ncnc2nc[nH]c12)c1cc2cccc(Cl)c2c(=O)n1-c1ccccc1	inactive
CC1(C)CCC(CN2CCN(c3ccc(C(=O)NS(=O)(=O)c4ccc(NCC5CCOCC5)c([N+](=O)[O-])c4)c(Oc4cnc5[nH]ccc5c4)c3)CC2)=C(c2ccc(Cl)cc2)C1 + COc1c(OCCCN2CCOCC2)ccc2c3n(c(=NC(=O)c4cnc(N)nc4)nc12)CCN3	inactive
CC1(C)CCC(Nc2ncc(C(F)(F)F)c(-c3c[nH]c4c(P(C)(C)=O)c(C#N)ccc34)n2)CN1 (stereo unspecified) + CC(Nc1ccc2c(c1)OCCn1cc(N3C(=O)OCC3C(F)F)nc1-2)C(N)=O	inactive
C=CC(=O)N1CCN(c2nc(=O)n(-c3c(C)ccnc3C(C)C)c3nc(-c4c(O)cccc4F)c(F)cc23)C(C)C1 (stereo unspecified) + COc1c(OCCCN2CCOCC2)ccc2c3n(c(=NC(=O)c4cnc(N)nc4)nc12)CCN3	inactive
CCCS(=O)(=O)Nc1ccc(F)c(C(=O)c2c[nH]c3ncc(-c4ccc(Cl)cc4)cc23)c1F + CC(Nc1ncnc2nc[nH]c12)c1cc2cccc(Cl)c2c(=O)n1-c1ccccc1	inactive

###

viability, T/C values for the compounds below.
System: 313798-341-R-J2-PDC spheroids, viability
PROTOCOL DETAILS: Anticancer human tumor 313798-341-R-J2-PDC cell line growth inhibition [PI3K];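 further: spheroids exposed to compounds for seven days; 100% = DMSO vehicle control viability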
RUN PARAMETERS: second compound 0.1 µM; first compound 0.1 µM; active compounds read low; spheroids with HUVEC and MSC

COMPOUND	viability, T/C (%)
C[C@@H](NC(=O)c1ncnc(N)c1Cl)c1ncc(C(=O)Nc2cc(C(F)(F)F)c(Cl)cn2)s1 + COc1c(OCCCN2CCOCC2)ccc2c3n(c(=NC(=O)c4cnc(N)nc4)nc12)CCN3	45.5
C#Cc1c(F)ccc2cc(O)cc(-c3ncc4c(N5CC6CCC(C5)N6)nc(OCC56CCCN5CC(F)C6)nc4c3F)c12 (stereo not drawn) + CC(Nc1ncnc2nc[nH]c12)c1cc2cccc(Cl)c2c(=O)n1-c1ccccc1	95.8
Cn1ncnc1[C@H]1c2n[nH]c(=O)c3cc(F)cc(c23)N[C@@H]1c1ccc(F)cc1 + CC(Nc1ncnc2nc[nH]c12)c1cc2cccc(Cl)c2c(=O)n1-c1ccccc1	84

###

Tested on: 313798-341-R-J2-PDC spheroids, viability
PROTOCOL DETAILS: Anticancer human tumor 313798-341-R-J2-PDC cell line growth inhibition [PI3K];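 further: spheroids exposed to compounds for seven days; 100% = DMSO vehicle control viability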
RUN PARAMETERS: second compound 0.1 µM; first compound 0.00949 µM; active compounds read low; spheroids with HUVEC and MSC
QUANTITY NAME: viability, T/C

COMPOUND	QUANTITY NAME	RESULT
Cn1cnc2c(F)c(Nc3ccc(Br)cc3Cl)c(C(=O)NOCCO)cc21 + Cc1nc(NC(=O)N2CCCC2C(N)=O)sc1-c1ccnc(C(C)(C)C(F)(F)F)c1	viability, T/C	105%
Cn1cnc2c(F)c(Nc3ccc(Br)cc3Cl)c(C(=O)NOCCO)cc21 + CC(Nc1ccc2c(c1)OCCn1cc(N3C(=O)OCC3C(F)F)nc1-2)C(N)=O	viability, T/C	79.4%
Cn1cnc2c(F)c(Nc3ccc(Br)cc3Cl)c(C(=O)NOCCO)cc21 + CC(Nc1ncnc2nc[nH]c12)c1cc2cccc(Cl)c2c(=O)n1-c1ccccc1	viability, T/C	85.7%
Cn1cnc2c(F)c(Nc3ccc(Br)cc3Cl)c(C(=O)NOCCO)cc21 + COc1c(OCCCN2CCOCC2)ccc2c3n(c(=NC(=O)c4cnc(N)nc4)nc12)CCN3	viability, T/C	45.2%

###

Tested on: 313798-341-R-J2-PDC spheroids, viability
PROTOCOL DETAILS: Anticancer human tumor 313798-341-R-J2-PDC cell line growth inhibition [PI3K];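 further: spheroids exposed to compounds for seven days; 100% = DMSO vehicle control viability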
RUN PARAMETERS: second compound 1 µM; first compound 10 µM; active compounds read low; spheroids with HUVEC and MSC

COMPOUND	viability, T/C (%)
CCCS(=O)(=O)Nc1ccc(F)c(C(=O)c2c[nH]c3ncc(-c4ccc(Cl)cc4)cc23)c1F + CC(Nc1ncnc2nc[nH]c12)c1cc2cccc(Cl)c2c(=O)n1-c1ccccc1	27.8
CC1(C)CCC(CN2CCN(c3ccc(C(=O)NS(=O)(=O)c4ccc(NCC5CCOCC5)c([N+](=O)[O-])c4)c(Oc4cnc5[nH]ccc5c4)c3)CC2)=C(c2ccc(Cl)cc2)C1 + CC(Nc1ncnc2nc[nH]c12)c1cc2cccc(Cl)c2c(=O)n1-c1ccccc1	49.9
Cn1nccc1Nc1nccc(-c2ccn(C(CO)c3ccc(Cl)c(F)c3)c(=O)c2)n1 (stereo not given) + Cc1nc(NC(=O)N2CCCC2C(N)=O)sc1-c1ccnc(C(C)(C)C(F)(F)F)c1	71.3
Cn1nccc1Nc1nccc(-c2ccn(C(CO)c3ccc(Cl)c(F)c3)c(=O)c2)n1 (stereo not given) + CC(Nc1ncnc2nc[nH]c12)c1cc2cccc(Cl)c2c(=O)n1-c1ccccc1	94.1
CNC(=O)c1ccc(N2C(=S)N(c3ccc(C#N)c(C(F)(F)F)c3)C(=O)C2(C)C)cc1F + CC(Nc1ccc2c(c1)OCCn1cc(N3C(=O)OCC3C(F)F)nc1-2)C(N)=O	44.7
